# Experiment Summary: Pharmacokinetic study in rats after oral administration of cinobufacini capsule (UPLC-MS/MS of plasma)
# Format: in vivo, rat
# Experimental Parameters: male, Sprague-Dawley, in vivo; rat plasma, oral cinobufacini capsule 3.6 g/kg (high), mean ± SD, n = 6; read-out: MRT0-∞
# Description: Male Sprague–Dawley rats (weighing 200–220 g) of SPF grade were offered by Sippr/BK laboratory Animal, Corp., Ltd. (Shanghai, China) and fed in the Laboratory Animal Center of the Shanghai University of Traditional Chinese Medicine. […] An Agilent 1290 Infinity series UPLC system was combined with an Agilent 6460 series triple quadrupole mass spectrometer (Agilent Technologies, Santa Clara, CA, United States) to quantify all 13 analytes in an ESI-positive ionization mode. […]
So basically: MRT inf at 2 h or higher? That is 1 (yes). Lower than 2 h? That is 0 (no).

q: Please indicate if the recorded MRT inf for `C[C@]12CC[C@H](O)C[C@H]1CC[C@@H]1[C@@H]2C(=O)[C@@H](O)[C@]2(C)[C@@H](c3ccc(=O)oc3)CC[C@]12O` meets or exceeds 2 h.
a: 0 (no)

q: Quick check: does `C[C@]12CC[C@H](O)C[C@H]1CC[C@@H]1[C@@H]2[C@H](O)C[C@]2(C)[C@@H](c3ccc(=O)oc3)CC[C@]12O` have MRT inf greater than or equal to 2 h?
a: 0 (no)

q: // inclusive: MRT inf at least 2 h? input: `C[C@]12CC[C@H](O)C[C@H]1CC[C@@H]1[C@@H]2[C@H](O)C(=O)[C@]2(C)[C@@H](c3ccc(=O)oc3)CC[C@]12O`
a: 0 (no)

q: Does MRT inf meet or surpass 2 h for `C[C@]12CC[C@H](O)C[C@H]1CC[C@@H]1[C@@H]2CC[C@]2(C)[C@@H](c3ccc(=O)oc3)CC[C@]12O` ?
a: 0 (no)

q: Quick check, MRT inf >= 2 h? `C[C@]12CC[C@H](O)C[C@@]1(O)CC[C@@H]1[C@@H]2CC[C@]2(C)[C@@H](c3ccc(=O)oc3)[C@@H](O)[C@H]3O[C@]132`
a: 1 (yes)
